# Target Desc: Sphingosine 1-phosphate receptor 5 (Homo sapiens, UniProt Q9H228)
# Sequence (Q9H228 whole entry): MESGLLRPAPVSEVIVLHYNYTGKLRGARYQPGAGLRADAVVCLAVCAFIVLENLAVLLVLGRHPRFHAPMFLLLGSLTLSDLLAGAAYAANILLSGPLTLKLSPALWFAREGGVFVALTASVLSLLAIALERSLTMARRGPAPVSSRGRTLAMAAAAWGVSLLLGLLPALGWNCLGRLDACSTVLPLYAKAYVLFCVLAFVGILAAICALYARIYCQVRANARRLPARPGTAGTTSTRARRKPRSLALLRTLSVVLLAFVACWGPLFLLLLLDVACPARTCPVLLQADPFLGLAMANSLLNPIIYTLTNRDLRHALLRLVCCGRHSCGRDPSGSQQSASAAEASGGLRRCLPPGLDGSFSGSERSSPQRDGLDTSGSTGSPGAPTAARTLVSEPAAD
# Assay Text: Agonist activity at S1P5 receptor (unknown origin)
Measured Parameter: EC50

Data request, read-out EC50, for O=C(c1cc(C2CC2)on1)N(C1CCCCC1)C1CCCCC1
> 25 µM

* * *

# Target Desc: Sphingosine 1-phosphate receptor 3 (Homo sapiens)
# Sequence (Q99500 whole entry): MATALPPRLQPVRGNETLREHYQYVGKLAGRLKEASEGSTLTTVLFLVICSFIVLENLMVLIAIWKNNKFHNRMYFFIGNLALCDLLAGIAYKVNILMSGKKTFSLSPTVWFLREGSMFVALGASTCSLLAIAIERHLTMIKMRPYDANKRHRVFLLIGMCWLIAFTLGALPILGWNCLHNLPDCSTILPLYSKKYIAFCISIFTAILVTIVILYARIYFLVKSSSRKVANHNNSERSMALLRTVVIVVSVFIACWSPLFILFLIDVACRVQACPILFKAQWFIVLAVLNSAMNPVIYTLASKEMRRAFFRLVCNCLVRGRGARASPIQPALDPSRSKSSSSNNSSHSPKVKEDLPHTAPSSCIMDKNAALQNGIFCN
# Assay Text: Agonist activity at human S1P3 receptor expressed in CHO cells after 4 hrs by fluorescence assay
# Format: cell-based
For each entry below, report its pEC50 value.
Please note pEC50 is a logarithmic value: minus log10 of concentration in mol/L. Answer with that number alone.

Data request, read-out pEC50, for CC1CCCCC1N(C(=O)c1cc(C2CC2)on1)C1CCCCC1C (centres undefined)
6.69

Data request, read-out pEC50, for O=C(c1cc(C2CC2)on1)N(Cc1ccccc1)c1ccccn1
5.18

* * *

# Target Desc: Sphingosine 1-phosphate receptor 4 (Homo sapiens, UniProt O95977)
# Sequence (O95977 whole entry): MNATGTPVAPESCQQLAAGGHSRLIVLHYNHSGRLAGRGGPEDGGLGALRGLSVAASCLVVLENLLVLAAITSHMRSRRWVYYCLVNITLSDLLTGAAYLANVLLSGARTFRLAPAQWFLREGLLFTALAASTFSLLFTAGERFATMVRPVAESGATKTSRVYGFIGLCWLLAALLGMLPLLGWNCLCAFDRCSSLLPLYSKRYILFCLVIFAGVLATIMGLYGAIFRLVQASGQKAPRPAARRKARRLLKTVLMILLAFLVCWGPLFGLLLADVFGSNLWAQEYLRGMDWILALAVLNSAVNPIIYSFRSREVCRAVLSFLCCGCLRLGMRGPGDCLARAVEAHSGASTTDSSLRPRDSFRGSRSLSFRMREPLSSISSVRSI
# Assay Text: Agonist activity at S1P4 receptor (unknown origin)
pEC50: −log10 of the molar value.
Measured Parameter: pEC50

Data request, read-out pEC50, for O=C(c1cc(C2CC2)on1)N(C1CCCCC1)C1CCCCC1
< 4.30

Data request, read-out pEC50, for CC1CCCCC1N(C(=O)c1cc(C2CC2)on1)C1CCCCC1 (stereo not drawn)
< 4.30

Data request, read-out pEC50, for O=C(c1cc(-c2ccccc2)on1)N(C1CCCCC1)C1CCCCC1
< 4.30

Data request, read-out pEC50, for CC1CCCCC1N(C(=O)c1cc(C2CC2)on1)C1CCCCC1C (stereo not drawn)
< 4.30

Data request, read-out pEC50, for CC1CCCCC1N(C(=O)c1cc(C2CC2)on1)C1CCCCCC1 (stereo not drawn)
< 4.30

Data request, read-out pEC50, for COc1ccc(-c2cc(C(=O)N(C3CCCCC3)C3CCCCC3)no2)cc1
< 4.30

Data request, read-out pEC50, for CCCc1cc(C(=O)N(C2CCCCC2)C2CCCCC2)no1
< 4.30

Data request, read-out pEC50, for CC(C)c1cc(C(=O)N(C2CCCCC2)C2CCCCC2)no1
< 4.30

* * *

# Target Desc: CYP2C19 (Homo sapiens, UniProt P33261)
# Sequence (P33261 whole entry): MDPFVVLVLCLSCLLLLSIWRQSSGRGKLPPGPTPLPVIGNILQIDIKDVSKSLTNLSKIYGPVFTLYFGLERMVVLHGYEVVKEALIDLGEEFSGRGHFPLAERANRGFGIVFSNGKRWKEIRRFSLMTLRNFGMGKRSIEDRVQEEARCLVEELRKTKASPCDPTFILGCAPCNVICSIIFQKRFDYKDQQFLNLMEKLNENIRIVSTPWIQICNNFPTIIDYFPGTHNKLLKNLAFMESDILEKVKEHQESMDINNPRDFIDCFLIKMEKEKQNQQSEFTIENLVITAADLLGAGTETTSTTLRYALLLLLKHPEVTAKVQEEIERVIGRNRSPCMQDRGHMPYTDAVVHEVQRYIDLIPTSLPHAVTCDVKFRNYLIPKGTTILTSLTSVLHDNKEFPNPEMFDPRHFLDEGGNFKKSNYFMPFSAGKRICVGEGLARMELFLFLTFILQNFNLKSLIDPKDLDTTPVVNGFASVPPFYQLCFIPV
# Assay Text: Inhibition of CYP2C19 (unknown origin) at 30 uM
# Format: ADME
Measured Parameter: inhibition at 30 µM

Data request, read-out inhibition at 30 µM, for O=C(c1cc(C2CC2)on1)N(C1CCCCC1)C1CCCCC1
≥ 50%

* * *

For each entry below, report its pEC50 value.
# Target Desc: Sphingosine 1-phosphate receptor 3 (Homo sapiens)
# Assay Text: Agonist activity at human S1P3 receptor expressed in CHO cells after 4 hrs by fluorescence assay
Please note pEC50 is a logarithmic value: minus log10 of concentration in mol/L. Answer with that number alone.

Query the reported pEC50 for Sphingosine 1-phosphate receptor 3 (Homo sapiens); item: O=C(c1cc(C2CC2)on1)N(CC1CCCCC1)C1CCCCC1
5.46

Query the reported pEC50 for Sphingosine 1-phosphate receptor 3 (Homo sapiens); item: O=C(c1cc(C2CC2)on1)N(C1CCCCC1)C1CCCC1
5.77

Query the reported pEC50 for Sphingosine 1-phosphate receptor 3 (Homo sapiens); item: CC(C)Cc1cc(C(=O)N(C2CCCCC2)C2CCCCC2)no1
5.86

Query the reported pEC50 for Sphingosine 1-phosphate receptor 3 (Homo sapiens); item: CC1CCCCC1N(C(=O)c1cc(C2CC2)on1)C1CCCC1 (stereo unspecified)
5.76

Query the reported pEC50 for Sphingosine 1-phosphate receptor 3 (Homo sapiens); item: CCCc1cc(C(=O)N(C2CCCCC2)C2CCCCC2)no1
6.36

Query the reported pEC50 for Sphingosine 1-phosphate receptor 3 (Homo sapiens); item: COc1ccc(-c2cc(C(=O)N(C3CCCCC3)C3CCCCC3)no2)cc1
6.49
